Target: T1, human recombinant GIP receptor (human, UniProt P48546 22-466)
T1 construct: whole, on cells; Assayed as washed membranes of CHO-K1 cells expressing the receptor; also called hGIP receptor
T1 sequence (looked up): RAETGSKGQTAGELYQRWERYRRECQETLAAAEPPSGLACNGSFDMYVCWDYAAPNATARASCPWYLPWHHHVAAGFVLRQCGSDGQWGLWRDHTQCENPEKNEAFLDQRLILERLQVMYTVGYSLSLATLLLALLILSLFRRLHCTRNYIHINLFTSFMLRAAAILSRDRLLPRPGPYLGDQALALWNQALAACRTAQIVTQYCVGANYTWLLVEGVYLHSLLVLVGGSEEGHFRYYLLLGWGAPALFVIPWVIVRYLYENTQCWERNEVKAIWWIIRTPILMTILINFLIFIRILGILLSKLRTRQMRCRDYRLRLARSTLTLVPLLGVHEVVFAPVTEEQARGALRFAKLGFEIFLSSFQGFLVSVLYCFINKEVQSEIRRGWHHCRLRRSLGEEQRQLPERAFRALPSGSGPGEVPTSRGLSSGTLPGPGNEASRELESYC
Assay: radioligand competition, [125I]GIP on membranes of CHO-K1 cells expressing human GIP receptor
pKi: −log10 of the molar value. Where no end group is shown, it is not given here. [ ]: non-standard residue; d: D form. The star is where a group is joined. Myristoyl = CCCCCCCCCCCCCC(=O)*; Ac6c = NC1(C(=O)O)CCCCC1; Nle = CCCC[C@H](N)C(=O)O; Orn = NCCC[C@H](N)C(=O)O; Aib = CC(C)(N)C(=O)O
Please use fulfilled whenever pKi is not below 7, and not fulfilled whenever it is.

{"columns": ["binder", "cat"],
 "data": [
  ["Ac-[Ac6c]SDYSIAMDKIHQQDFVNWLLAQK[Orn](Myristoyl)KKNDWKHNITQ-OH (Synthetic analogue of human GIP; also called [Ac-Ac6c^7, Orn(N-C(O)-(CH2)12-CH3)^31]hGIP(7-42)-OH) [[Ac-A6c^7, Orn^31(N-C(O)-(CH2)12-CH3)]hGIP(7-42)-OH]", "not fulfilled"],
  ["XEGTFISDYSIAXDKIHQQDFVNWLLAQKGKKNDWKHNITQ (4Hppa at 2; A6c at 14; hGIP numbering; C-terminal free acid, Synthetic analogue of human GIP) [(4Hppa^2, A6c^14)hGIP(2-42)-OH]", "fulfilled"],
  ["FISDY[Aib]IA[Nle]DKIHQQDFVNWLLAQK-NH2 (Synthetic analogue of human GIP) [(Aib^11, Nle^14)hGIP(6-30)-NH2]", "not fulfilled"]
]}
